Entries annotated with measured inhibition at 10 µM
molecular target: AR (Homo sapiens, UniProt P10275); experiment: GeneBlazer assay, inhibition against AR activity; format: cell-based; settings: 10 uM; Table II
Report the figure in % without appending any unit label.

MOLECULE	inhibition at 10 µM / %
COc1ccc(C(c2nnnn2C(C)(C)C)N2CCN(c3c(Cl)cncc3Cl)CC2)cc1 (stereo not drawn) [Compound 33]	97.5
CCCCC(c1nnnn1C(C)C)N1CCN(c2c(Cl)cncc2Cl)CC1 (stereo not drawn) [Compound 52]	95.8
Oc1cccc(C(c2nnnn2Cc2ccccc2)N2CCN(c3c(Cl)cncc3Cl)CC2)c1 (stereo not drawn) [Compound 19]	120
CCCCn1nnnc1C(c1cccc(O)c1)N1CCN(c2ccccc2OC)CC1 (stereo not drawn) [Compound 59]	94.5
CCCCn1nnnc1C(c1ccc2[nH]ccc2c1)N1CCN(c2c(Cl)cncc2Cl)CC1 (stereo not drawn) [Compound 12]	93.9
CCCCn1nnnc1C(c1ccc(F)cc1)N1CCN(c2c(Cl)cncc2Cl)CC1 (stereo not drawn) [Compound 36]	102

Req: Entry CC(C)n1nnnc1C(c1cccc(O)c1)N1CCN(c2c(Cl)cncc2Cl)CC1 (stereo not drawn) [Compound 15] has what inhibition at 10 µM?
Resp: 86

###

Entries annotated with measured inhibition at 10 µM
Target: AR (Homo sapiens, UniProt P10275)
Sequence (P10275 669-920 limits assumed): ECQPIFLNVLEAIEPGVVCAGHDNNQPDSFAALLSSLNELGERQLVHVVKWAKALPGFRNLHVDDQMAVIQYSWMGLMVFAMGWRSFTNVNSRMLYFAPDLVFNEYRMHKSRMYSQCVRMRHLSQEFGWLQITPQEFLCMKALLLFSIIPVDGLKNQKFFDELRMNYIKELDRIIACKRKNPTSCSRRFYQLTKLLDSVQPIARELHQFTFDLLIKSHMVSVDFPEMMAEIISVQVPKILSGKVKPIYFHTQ
Experiment: GeneBlazer assay, inhibition against AR activity
Type: cell-based
Settings: 10 uM; Table II
Report the figure in % without appending any unit label.

The following compounds have reported results that may help.
COMPOUND	inhibition at 10 µM, %
CC(C)(C)n1nnnc1C(CCc1ccccc1)N1CCN(c2c(Cl)cncc2Cl)CC1 (stereo not drawn)	109
CC(C)n1nnnc1C(c1ccco1)N1CCN(c2c(Cl)cncc2Cl)CC1 (stereo not drawn)	96.7
CCCCn1nnnc1C(c1cccc(O)c1)N1CCN(c2cc(C)ccc2C)CC1 (stereo not drawn)	112
CCCCn1nnnc1C(C)N1CCN(c2c(Cl)cncc2Cl)CC1 (stereo not drawn)	95.3
CC(C)(C)n1nnnc1C(c1cccc2ccccc12)N1CCN(c2c(Cl)cncc2Cl)CC1 (stereo not drawn)	107

Req: Entry CCCCn1nnnc1C(c1ccc(C#N)cc1)N1CCN(c2c(Cl)cncc2Cl)CC1 (stereo not drawn) has what inhibition at 10 µM?
Resp: 99.8

Req: Entry CCCCn1nnnc1C(c1cccc(O)c1)N1CCN(c2ncc(C(F)(F)F)cc2Cl)CC1 (stereo not drawn) has what inhibition at 10 µM?
Resp: 102

Req: Entry CCCCn1nnnc1C(c1ccc2c(c1)OCO2)N1CCN(c2c(Cl)cncc2Cl)CC1 (stereo not drawn) has what inhibition at 10 µM?
Resp: 98.4

Req: Entry CCCCn1nnnc1C(c1ccnc2ccccc12)N1CCN(c2c(Cl)cncc2Cl)CC1 (stereo not drawn) has what inhibition at 10 µM?
Resp: 110

Req: Entry CCCCn1nnnc1C(c1cccc(O)c1)N1CCN(c2ccccc2)CC1 (stereo not drawn) has what inhibition at 10 µM?
Resp: 63.9

Req: Entry CCCCn1nnnc1C(c1cccc(O)c1)N1CCN(c2ncccc2C(F)(F)F)CC1 (stereo not drawn) has what inhibition at 10 µM?
Resp: 105

Req: Entry CCCCn1nnnc1C(c1cccc(O)c1)N1CCN(c2c(Cl)cccc2Cl)CC1 (stereo not drawn) has what inhibition at 10 µM?
Resp: 98

Reference source: patent US20220062278A1
